Target: Muscarinic acetylcholine receptor M4 (Homo sapiens) (UniProt P08173)
Sequence (whole entry): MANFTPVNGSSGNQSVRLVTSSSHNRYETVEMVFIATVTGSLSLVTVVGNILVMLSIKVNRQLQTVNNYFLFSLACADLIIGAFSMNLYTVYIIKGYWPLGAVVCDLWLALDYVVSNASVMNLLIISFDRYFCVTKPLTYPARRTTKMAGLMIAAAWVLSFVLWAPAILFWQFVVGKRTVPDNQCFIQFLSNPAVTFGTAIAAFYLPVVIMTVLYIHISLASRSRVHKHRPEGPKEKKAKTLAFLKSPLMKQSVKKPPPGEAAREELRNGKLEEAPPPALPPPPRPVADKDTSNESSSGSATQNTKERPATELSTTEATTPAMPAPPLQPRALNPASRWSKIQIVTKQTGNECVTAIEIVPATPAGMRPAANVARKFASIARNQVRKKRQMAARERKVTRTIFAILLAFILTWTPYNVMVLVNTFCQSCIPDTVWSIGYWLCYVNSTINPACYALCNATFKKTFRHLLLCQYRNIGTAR
Particulars: Flp-In-CHO, filed as positive allosteric modulator
Description: Positive allosteric modulation at human M4 mAChR stably expressed in Flp-In-CHO cells co-transfected with CAMYEL biosensor assessed as ACh-induced CAMYEL activation by measuring log of functional co-operativity by BRET assay
Assay Endpoint: log(activity)

# Query Smiles, Value
data = [
    ("COC(=O)CCn1cc(-c2ccc(C)nc2-c2ccc3c(c2)C(=O)N(C)C3)cn1", 1.08),
]

1. Cc1cnc(-c2ccc3c(c2)C(=O)N(C)C3)c(-c2cnn(CC3CCCC3)c2)c1
2. Cc1ncc(-c2cnn(CC3CCCC3)c2)c(-c2ccc3c(c2)C(=O)N(C)C3)n1
Please tell me which of the two, 1 or 2 , has the higher reported log(activity) value. Field: selected label. Fill in the label of the entry you choose.
1
